Listed compounds paired with reported growth inhibition
- run.description: NCI Yeast Anticancer Drug Screen. Data for the mec2-1 strain (AID 157)
- test.parameters: S. cerevisiae mec2-1 strain, at 1.2 µM, stronger effect = higher value
Compounds without any hit were thinned out: in the full panel of roughly 79,000, 15% have a hit.

>  <compound>
CC1=C(C)C(=O)C2=C(OCCO2)C1=O

>  <growth inhibition, %>
-3

$$$$
>  <compound>
CC1=NN(C(=O)CC(=O)NC(=O)/C=C\c2ccccc2)C(=O)C1N=Nc1ccc([N+](=O)[O-])cc1 (configuration not stated)

>  <growth inhibition, %>
3

$$$$
>  <compound>
CS(=O)(=O)O.[Ag]

>  <growth inhibition, %>
67

$$$$
>  <compound>
CCCCCCCCCCCNC=O

>  <growth inhibition, %>
-22

$$$$
>  <compound>
CCOP(=O)(OCC)/C(C#N)=C/c1ccc(-c2ccc(F)cc2F)o1

>  <growth inhibition, %>
2

$$$$
>  <compound>
CCCCCCCCSC1=C(Cl)C(=O)C(OC)=C(OC)C1=O

>  <growth inhibition, %>
-37

$$$$
>  <compound>
Brc1ccc(B2Nc3ccccc3N2)cc1

>  <growth inhibition, %>
1

$$$$
>  <compound>
COc1ccc2nc3cccc([N+](=O)[O-])c3c(NCCCCCC(=O)O)c2c1

>  <growth inhibition, %>
63

$$$$
>  <compound>
O=C1Nc2ccc(Br)cc2C1=Nc1cccnc1

>  <growth inhibition, %>
-54

$$$$
>  <compound>
CN1CCN(C(=O)c2cccc3cccc(C(=O)O)c23)CC1

>  <growth inhibition, %>
10

$$$$
>  <compound>
Cc1c2c(nc3ccccc13)C(=O)c1cccnc1C2=O

>  <growth inhibition, %>
-18

$$$$
>  <compound>
CC1(C)CC(=O)C(C(=O)Nc2cccs2)=C(O)C1

>  <growth inhibition, %>
3

$$$$

---

Listed compounds paired with reported growth inhibition
- run.description: NCI Yeast Anticancer Drug Screen. Data for the mec2-1 strain (AID 157)
- test.parameters: S. cerevisiae mec2-1 strain, at 1.2 µM, stronger effect = higher value
This is part of a sample that, as a whole, favours compounds with a hit. Of some 79,000 tested, about 15% had one in any assay.

>  <compound>
Cc1ccccc1NC(=O)c1c(C)oc2c1C(=O)c1ccccc1C2=O

>  <value.unit>
%

>  <growth inhibition>
-28

$$$$
>  <compound>
O=C1c2ccccc2C(=O)c2sc(Nc3ccccc3Cl)nc21

>  <value.unit>
%

>  <growth inhibition>
-13

$$$$
>  <compound>
N#CCCC1C(C#N)C2(Cl)CC1(Cl)C(Cl)=C2Cl (stereo unspecified)

>  <value.unit>
%

>  <growth inhibition>
-29

$$$$
>  <compound>
O=C1C[C@H]2[C@H](c3ccc(Br)cc3)[C@H]3C(=O)c4ccccc4NC(=O)[C@@H]3[C@@]2(O)c2ccccc2N1

>  <value.unit>
%

>  <growth inhibition>
9

$$$$
>  <compound>
O=C(c1ccccc1)[C@H]1Nc2ccc(Cl)cc2[C@H]2OCCC[C@@H]12

>  <value.unit>
%

>  <growth inhibition>
-23

$$$$
>  <compound>
O=c1[nH]c2c([N+](=O)[O-])cccc2c2ccccc12

>  <value.unit>
%

>  <growth inhibition>
0

$$$$
>  <compound>
O=[N+]([O-])c1ccc(/C=C\c2ccc3c(c2)OCO3)c([N+](=O)[O-])c1

>  <value.unit>
%

>  <growth inhibition>
-3

$$$$
>  <compound>
CCCCCCCN(CCCCCCC)CC(=O)c1ccc2cc(Cl)c3ccccc3c2c1

>  <value.unit>
%

>  <growth inhibition>
1

$$$$
>  <compound>
CCN(CC)CC(=O)c1ccc2cc(Cl)c3ccccc3c2c1

>  <value.unit>
%

>  <growth inhibition>
12

$$$$
>  <compound>
Cc1c2cc[n+](CCO)cc2c(C)c2c1[nH]c1ccc(O)cc12

>  <value.unit>
%

>  <growth inhibition>
22

$$$$
>  <compound>
COc1cc([C@@H]2c3cc4c(cc3[C@@H](NC(=O)NO)[C@H]3COC(=O)[C@H]23)OCO4)cc(OC)c1O

>  <value.unit>
%

>  <growth inhibition>
-1

$$$$
>  <compound>
O=[N+]([O-])c1ccc(S(=O)(=O)Cc2ccccc2)c([N+](=O)[O-])c1

>  <value.unit>
%

>  <growth inhibition>
12

$$$$
>  <compound>
O=[N+]([O-])c1cn[n+]([O-])c2ccccc12

>  <value.unit>
%

>  <growth inhibition>
17

$$$$
>  <compound>
CC(=O)O[C@H]1CC[C@@]2(C)C(=CC[C@@H]3C2CC[C@]2(C)C(=O)NC(=O)CC32)C1 (stereo partly specified)

>  <value.unit>
%

>  <growth inhibition>
-21

$$$$
>  <compound>
CCCNC(=O)OCc1c(COC(=O)NCCC)c(-c2ccc(Cl)c(Cl)c2)n2c1CCC2

>  <value.unit>
%

>  <growth inhibition>
-47

$$$$
>  <compound>
C=COC(=O)N[C@H]1CCc2cc(OC)c(OC)c(OC)c2-c2ccc(SC)c(=O)cc21

>  <value.unit>
%

>  <growth inhibition>
-5

$$$$
>  <compound>
O=C1C2=C(c3ccccc31)C(c1ccccc1)N1C(=O)CSC1=N2 (stereo unspecified)

>  <value.unit>
%

>  <growth inhibition>
5

$$$$
>  <compound>
CC(C)OC(=O)NNc1cccc(Cl)c1

>  <value.unit>
%

>  <growth inhibition>
0

$$$$
>  <compound>
C=C(C(=O)OC)N1C(=O)CC(C)C1=O (stereo unspecified)

>  <value.unit>
%

>  <growth inhibition>
0

$$$$
>  <compound>
CC12CCC(CC(=O)/C1=C(/Br)I)C2(C)C (stereo unspecified)

>  <value.unit>
%

>  <growth inhibition>
0

$$$$
>  <compound>
CC(C)(CN1CCCCC1)C(=O)CC(SCCS(=O)(=O)O)c1ccccc1 (stereo unspecified)

>  <value.unit>
%

>  <growth inhibition>
-1

$$$$
